Below, each of the substances is paired with its reported Tm (temperature at which 50% of the peptide is unfolded) value.
# protocol.description: Thermal denaturation by circular dichroism spectroscopy at 222 nm
# Type: physicochemical
# condition.info: CD at 222 nm, benign buffer (100mM KCl, 50mM PO4, pH 7), 5°C to 90°C in 0.5°C increments, 60°C/hour, from plot of fraction folded versus temperature
metric.name: Tm (temperature at which 50% of the peptide is unfolded)

>>> measurement("Native: native tropomyosin 85-119 coiled-coil sequence with N-terminal Cys-Gly-Gly linker, N-acetylated, C-amidated, disulfide-bridged (Ac-CGGVASLNRRIQLVEEELDRAQERLATALQKLEEAEKA-NH2; also: disulfide-bridged two-stranded dimer (linker Cys); UniProt P09493 85-119, looked up, fragment)")
"52.9 °C"
>>> measurement("TM7: TM85-119 analog with R101A/L110A/K112A/K118A substitutions (VASLNRRIQLVEEELDAAQERLATAAQALEEAEAA; not fully specified; Cys-Gly-Gly linker; UniProt P09493 85-119, looked up, variant R101A L110A K112A K118A)")
"<5 °C"
>>> measurement("TM2: TM85-119 analog with K118A substitution (VASLNRRIQLVEEELDRAQERLATALQKLEEAEAA; not fully specified; Cys-Gly-Gly linker; UniProt P09493 85-119, looked up, variant K118A)")
"48.7 °C"
>>> measurement("TM3: TM85-119 analog with K112A/K118A substitutions (VASLNRRIQLVEEELDRAQERLATALQALEEAEAA; not fully specified; Cys-Gly-Gly linker; UniProt P09493 85-119, looked up, variant K112A K118A)")
"45.3 °C"
>>> measurement("TM4: TM85-119 analog with R101A substitution (VASLNRRIQLVEEELDAAQERLATALQKLEEAEKA; not fully specified; Cys-Gly-Gly linker; UniProt P09493 85-119, looked up, variant R101A)")
"46.0 °C"

* * *

# reported PA,Max (maximum association parameter, self-association); entries follow
# protocol.description: RP-HPLC temperature profiling of peptide self-association
# Assay type: physicochemical
# condition.info: Gemini C18, 100mM NaClO4, 10mM NH4H2PO4, pH 7, 2%B per minute, 5°C - 80°C in 3°C increments, peptide 1.7mg/ml, retention times normalized to 5°C minus random coil control peptide
metric.name: PA,Max (maximum association parameter, self-association)

>>> measurement("Native: native tropomyosin 85-119 coiled-coil sequence with N-terminal Cys-Gly-Gly linker, N-acetylated, C-amidated, disulfide-bridged (Ac-CGGVASLNRRIQLVEEELDRAQERLATALQKLEEAEKA-NH2; also: disulfide-bridged two-stranded dimer (linker Cys); UniProt P09493 85-119, looked up, fragment)")
3.4
>>> measurement("TM7: TM85-119 analog with R101A/L110A/K112A/K118A substitutions (VASLNRRIQLVEEELDAAQERLATAAQALEEAEAA; not fully specified; Cys-Gly-Gly linker; UniProt P09493 85-119, looked up, variant R101A L110A K112A K118A)")
0
>>> measurement("TM2: TM85-119 analog with K118A substitution (VASLNRRIQLVEEELDRAQERLATALQKLEEAEAA; not fully specified; Cys-Gly-Gly linker; UniProt P09493 85-119, looked up, variant K118A)")
2.7
>>> measurement("TM4: TM85-119 analog with R101A substitution (VASLNRRIQLVEEELDAAQERLATALQKLEEAEKA; not fully specified; Cys-Gly-Gly linker; UniProt P09493 85-119, looked up, variant R101A)")
1.8
>>> measurement("TM3: TM85-119 analog with K112A/K118A substitutions (VASLNRRIQLVEEELDRAQERLATALQALEEAEAA; not fully specified; Cys-Gly-Gly linker; UniProt P09493 85-119, looked up, variant K112A K118A)")
2.4

* * *

# protocol.description: Circular dichroism spectra
# Type: physicochemical
# condition.info: CD, benign buffer (100mM KCl, 50mM PO4, pH 7), 5°C, peptide 211μm to 265μm (0.2 mg/ml), 1 mm cell, average of 6 scans
[θ]222 Benign (mean residue ellipticity at 222 nm) listing for selected substances.
metric.name: [θ]222 Benign (mean residue ellipticity at 222 nm)

>>> measurement("Native: native tropomyosin 85-119 coiled-coil sequence with N-terminal Cys-Gly-Gly linker, N-acetylated, C-amidated, disulfide-bridged (Ac-CGGVASLNRRIQLVEEELDRAQERLATALQKLEEAEKA-NH2; also: disulfide-bridged two-stranded dimer (linker Cys); UniProt P09493 85-119, looked up, fragment)")
"-36,213 deg cm^2 dmol^-1"
>>> measurement("TM7: TM85-119 analog with R101A/L110A/K112A/K118A substitutions (VASLNRRIQLVEEELDAAQERLATAAQALEEAEAA; not fully specified; Cys-Gly-Gly linker; UniProt P09493 85-119, looked up, variant R101A L110A K112A K118A)")
"-9,578 deg cm^2 dmol^-1"
>>> measurement("TM2: TM85-119 analog with K118A substitution (VASLNRRIQLVEEELDRAQERLATALQKLEEAEAA; not fully specified; Cys-Gly-Gly linker; UniProt P09493 85-119, looked up, variant K118A)")
"-30,548 deg cm^2 dmol^-1"
>>> measurement("TM4: TM85-119 analog with R101A substitution (VASLNRRIQLVEEELDAAQERLATALQKLEEAEKA; not fully specified; Cys-Gly-Gly linker; UniProt P09493 85-119, looked up, variant R101A)")
"-34,390 deg cm^2 dmol^-1"
>>> measurement("TM3: TM85-119 analog with K112A/K118A substitutions (VASLNRRIQLVEEELDRAQERLATALQALEEAEAA; not fully specified; Cys-Gly-Gly linker; UniProt P09493 85-119, looked up, variant K112A K118A)")
"-29,457 deg cm^2 dmol^-1"

* * *

# protocol.description: Circular dichroism spectra
# Type: physicochemical
# condition.info: ratio of mean residue ellipticity at 222 nm and 208 nm, 50/50 benign buffer/TFE (v/v), 5°C
metric.name: [θ]222/[θ]208 50% TFE (deg cm^2 dmol^-1)

>>> measurement("TM7: TM85-119 analog with R101A/L110A/K112A/K118A substitutions (VASLNRRIQLVEEELDAAQERLATAAQALEEAEAA; not fully specified; Cys-Gly-Gly linker; UniProt P09493 85-119, looked up, variant R101A L110A K112A K118A)")
0.97
>>> measurement("TM2: TM85-119 analog with K118A substitution (VASLNRRIQLVEEELDRAQERLATALQKLEEAEAA; not fully specified; Cys-Gly-Gly linker; UniProt P09493 85-119, looked up, variant K118A)")
0.97
>>> measurement("Native: native tropomyosin 85-119 coiled-coil sequence with N-terminal Cys-Gly-Gly linker, N-acetylated, C-amidated, disulfide-bridged (Ac-CGGVASLNRRIQLVEEELDRAQERLATALQKLEEAEKA-NH2; also: disulfide-bridged two-stranded dimer (linker Cys); UniProt P09493 85-119, looked up, fragment)")
0.96
>>> measurement("TM4: TM85-119 analog with R101A substitution (VASLNRRIQLVEEELDAAQERLATALQKLEEAEKA; not fully specified; Cys-Gly-Gly linker; UniProt P09493 85-119, looked up, variant R101A)")
0.96
>>> measurement("TM3: TM85-119 analog with K112A/K118A substitutions (VASLNRRIQLVEEELDRAQERLATALQALEEAEAA; not fully specified; Cys-Gly-Gly linker; UniProt P09493 85-119, looked up, variant K112A K118A)")
0.97
